Measured values drawn from the RNAGym collection of RNA variant scans (doi:10.7554/elife.80360) for this set.

B1: Hairpin Ribozyme (parent)
chain: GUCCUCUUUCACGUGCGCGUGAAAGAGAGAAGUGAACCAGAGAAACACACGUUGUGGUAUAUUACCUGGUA

# Variants of: B1
# measurement_description: self-cleavage, relative activity (ratio to wild type); higher = more cleavage; co-transcriptional
# self-cleavage per entry
I only need the number, thanks.

Answered examples (8):
mutant_label: G13U A28U
value: 0.546

mutant_label: G40C U52C
value: 0.137

mutant_label: G13A U53A
value: 0.856

mutant_label: G17A C66U
value: 0.554

mutant_label: C38G U62C
value: 0.236

mutant_label: G40A C65A
value: 0.315

mutant_label: G13U G32C
value: 0.232

mutant_label: C37U G54C
value: 0.338

Request: Requested read-out: self-cleavage. Entry: C12U G27U
Response: 0.199

Request: Item A36U G56C has what recorded self-cleavage?
Response: 0.131

Request: # lookup: self-cleavage of C18U A35C
Response: 0.968

Request: Could you share which self-cleavage value was measured for C38G A45G ?
Response: 0.259

Request: # input variant: U9G A44G ; wanted: its self-cleavage
Response: 0.129

Request: Any idea what self-cleavage was measured for G29U A44U ?
Response: 0.125

Request: Please report the recorded self-cleavage for U8A G56U .
Response: 0.134

Request: # query: self-cleavage of entry A59G U62C
Response: 0.201

Request: Look at this variant and give its reported self-cleavage. C10U G51C
Response: 0.783

Request: Reported self-cleavage, variant C4G G57U : ____
Response: 0.151

Request: I have this variant here, U20A C50U , and I need its recorded self-cleavage.
Response: 0.5

Request: self-cleavage for A45C A47U ?
Response: 0.212

Request: I have this variant here, A22G A45U , and I need its recorded self-cleavage.
Response: 0.268

Request: Consider the variant shown here: U5G U63C What is its recorded self-cleavage?
Response: 0.116
